molecular target: T1, FcRn-p3 fusion protein (human, UniProt P55899 24-297; P61769 21-119); assay: phage ELISA pH6
T1 construct: baculovirus expressed; coated on ELISA wells; not shown: amino terminal part of bacteriophage p3 protein and CVDE protein
T1 sequence (P55899 24-297, chain 1 of 2): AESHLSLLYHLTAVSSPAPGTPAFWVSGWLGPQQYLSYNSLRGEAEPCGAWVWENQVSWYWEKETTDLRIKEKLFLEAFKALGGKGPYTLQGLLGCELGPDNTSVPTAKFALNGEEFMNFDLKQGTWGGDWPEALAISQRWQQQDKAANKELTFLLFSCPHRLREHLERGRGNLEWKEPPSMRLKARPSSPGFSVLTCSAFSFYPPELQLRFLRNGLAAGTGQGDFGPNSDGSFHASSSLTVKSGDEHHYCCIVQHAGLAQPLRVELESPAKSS
T1 sequence (P61769 21-119, chain 2 of 2): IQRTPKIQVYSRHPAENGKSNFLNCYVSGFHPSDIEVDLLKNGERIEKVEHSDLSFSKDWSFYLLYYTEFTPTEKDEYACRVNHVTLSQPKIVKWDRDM
Provide the reported Ratio/Fc-H of each item.
One number for each entry, in fold.

| Binder | Readout type | Measure unit | Reported |
| --- | --- | --- | --- |
| T4A_48 (other, EU numbering) CPPCPAPELLGGPSVFLFPPKPKDTLMISRTPEVTCVVVDVSHEDPEVKFNWYVDGVEVHNAKTKPREEQYNSTYRVVSVLTILHQDWLDGKEYKCKVSNKALPVPIEKTISKAKGQPREPQVYTLPPSRDELTKNQVSLTCLVKGFYPSDIAVEWVSNGQPENNYKTTPPVLDSDGSFFLYSKLTVDKSRWQQGNVFSCSVMHEALHYHYTQKSLSLSPGK | Ratio/Fc-H | fold | 4.5 |

Batch request: Ratio/Fc-H per item, same order as input.
1. C3A_13 (other, EU numbering) GPPCPAPELLGGPSVFLFPPKPKDTLMISRTPEVTCVVVDVSHEDPEVKFNWYVDGVEVHNAKTKPREEQYNSTYRVVSVLTVLHQDWLDGKEYKCKVSNKALPVPIEKTISKAKGQPREPQVYTLPPSRDELTKNQVSLTCLVKGFYPSDIAVEWESNGQPENNYKTTPPVLDSDGSFFLYSKLTVDKSRWQQGNVFSCSVMHEALHYHYTQKSLSLSPGK
2. C6A_85 (other, EU numbering) CPPCPAPELLGGPSVFLFPPKPKDTLMISRTPEVTCVVVDVSHEDPEVKFNWYVDGVEVHNAKTKPREEQYNSTYRVVSALTVLHQDWLDGKEYKCKVSNKALPVPIEKTISKAKGQPREPQVYTLPPSRDELTKNQVSLTCLVKGFYPSDIAVEWESNGQPEKNYKTTPPVLDSDGSFFLYSKLTVDKSRWQQGNVFSCSVMHEALHYHYTQKSLSLSPGK
3. T5A_74F (other, EU numbering) CPRCSAPELLGGPSVFLFPPKPKDTLMISRTPEVTCVVVDVSHEDPEVKFNWYVDGVEVHNAKTKPREEQYNSTYRVVSVLTVLHQDWLDGKEYKCKVSNKALPVPIEKTISKAKGQPREPQVYTLPPSRDELTKDQVSLTCLVKGFYPSDIVVEWESNGQPENNYKTTPPVLDSDGSFFLYSKLTVDKSRWQQGNVFSCSVMHEALHYHYTQKSLSLSPGK
4. T5A_45 (other, EU numbering) CPPCPTPELLGGPSVLLFPPKPKDTLMISRTPEVTCVVEDVSHEDPEVKFNWYVDGVEVHNAKTKPREEQYNSTYRVVSVLTVLHQDWLNGKEYKCKVSNKALPAPIEKTISKAKGQPREPQVYTLPPSRDELTKNQVSLTCLVKGFYPSDITVEWESNGQPENNYKTTPPMLDSDGSFFLYSKLTVDKSRWQQGNVFSCSVMHEALHSHYTQKSLSLSPGK

(A)
5.6
7.4
16.8
4.5
